# Test system: CCRF-CEM leukemia
# TEST_NAME: NCI tumour cell line growth inhibition, 48 h; in the data active = GI50 below about 0.43 µM; inactive = the rest
Your response should consist of one outcome taken from class 1 = active, class 0 = inactive

// known answers, use as guide
S=C1NC2=C(CCOc3c2ccc2ccccc32)C(c2ccc(Cl)cc2)N1 (stereo not given) = class 0
CC[C@@]1(O)C(=O)N(CCN(C)C)Cc2c1cc1n(c2=O)Cc2cc3ccccc3nc2-1 = class 0
CCN(CC)c1ccc(/C=C2/NC(=O)NC2=O)cc1 = class 0
CCN(Cc1cccc(C)c1)c1ccc(CO)c(Cl)c1 = class 0
COC(=O)CCCCCCCCC(=O)c1c(C)[nH]c(/C=C2\N=C(c3ccc[nH]3)C=C2OC)c1C = class 0

In: How was COc1cc(C2CC(c3cc(Cl)c(C)cc3O)=NN2c2ccc(S(N)(=O)=O)cc2)cc(OC)c1OC (stereo not given) classified in this test?
Out: class 0

In: How was COc1cc2cc(Oc3ccc(NC(=O)Nc4cc(C(F)(F)F)cc(C(F)(F)F)c4)cc3)c(C)nc2cc1OCCN1CCCCC1 classified in this test?
Out: class 0

In: How was CCN1CCN(c2nc(NNC(=O)c3cccc(OC)c3)nc(N3CCN(C(c4ccccc4)c4ccccc4)CC3)n2)CC1 classified in this test?
Out: class 0

In: How was COc1ccc(CN[C@H]2CCc3cc(OC)c(OC)c(OC)c3-c3ccc(SC)c(=O)cc32)c(OC)c1OC classified in this test?
Out: class 1
